meta.source: patent US20060079453A1

Target: HLA-DR DRB1*1101 (DR11) (Homo sapiens, UniProt P01903+P01911, A100R/A169T/A87E/I96F/K41T/L162R/M171V/P40S/Q125H/Q178H/Q39Y/Q99D/R42S/S66Y/T262R/V115G/W38E)
Sequence (P01903 26-254 limits assumed, other chains not shown): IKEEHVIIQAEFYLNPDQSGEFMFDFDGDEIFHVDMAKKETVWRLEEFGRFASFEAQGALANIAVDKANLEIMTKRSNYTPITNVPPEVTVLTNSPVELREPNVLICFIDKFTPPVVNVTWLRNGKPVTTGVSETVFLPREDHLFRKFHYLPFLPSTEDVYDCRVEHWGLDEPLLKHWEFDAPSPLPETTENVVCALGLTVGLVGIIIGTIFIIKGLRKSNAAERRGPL
Experiment: biochemical
Type: binding
Conditions: DRB1 *1101
No end group written: not given here.
Hi! Could you tag entries with IC50 below 2 µM as yes, and those at or above as no? Much appreciated.

{"ordered_residues": "VQQLLMGALTVTCPL", "assigned_class": "no"}
{"ordered_residues": "LRTLQQMLLGTLQVV", "assigned_class": "yes"}
{"ordered_residues": "VCGERGFFYTPKTRR", "assigned_class": "no"}
{"ordered_residues": "VPTLQDVVLELTPQT", "assigned_class": "no"}
{"ordered_residues": "TSITSLYQLENYTN", "assigned_class": "yes"}
{"ordered_residues": "EQTTTSITSLYQLEN", "assigned_class": "no"}
{"ordered_residues": "AVTIYEMLQNIFAIF", "assigned_class": "no"}
{"ordered_residues": "EMLQNIFAIFRQDSS", "assigned_class": "no"}
{"ordered_residues": "RLRIVRGTQLFEDNYAL", "assigned_class": "no"}
